- Test system: P388 leukemia ip, CD2F1 mice, survival T/C
- assay_method_text: NCI In Vivo Anticancer Drug Screen. Data for tumor model P388 Leukemia (intraperitoneal) in CD2F1 (CDF1) mice
- assay_context: endpoint: median survival time; dose: 200.0 mg/kg/injection; schedule: Q01DX009 (ip); vehicle: saline; higher = longer survival
- Description: The antitumor activity of compounds was measured in mice bearing transplantable tumors. Survival or tumor size were measured and the results are expressed as the measurement made in the treated group (T) divided by the measurement made in the vehicle treated control group (C). The tumor model used in this assay is P388 Leukemia (intraperitoneal) in CD2F1 (CDF1) mice
Toxic doses and inconclusive results are not listed.
T/C listing for selected molecules.
measure: T/C

molecule: Cc1cc(=O)[nH]c(/N=C(/N)N(C)C)n1
data_value: 108 % of control

molecule: O=C(O)CS(=O)(=O)CCS(=O)(=O)CC(=O)O
data_value: 88 % of control

molecule: CCCCCCC1(/C=C/c2ccc(Cl)c(Cl)c2)OCCS1 (centres undefined)
data_value: 88 % of control

molecule: O=C(O)c1c[nH]c2cc(F)ccc2c1=O
data_value: 96 % of control

molecule: [CH3][Ge]([CH3])([CH3])/[C](=[C](\c1ccccc1)[Ge]([CH3])([CH3])[CH3])c1ccccc1
data_value: 93 % of control

molecule: NC(=O)c1cn(CCO)nc1[N+](=O)[O-]
data_value: 119 % of control

molecule: NC(N)=O.NC(N)=O.NC(N)=O.NC(N)=O.NC(N)=O.NC(N)=O.[O-][Cl+3]([O-])([O-])O.[Ti+3]
data_value: 86 % of control

molecule: C=CCOCC1CO1 (centres undefined)
data_value: 100 % of control

molecule: COc1ccc(CSC(=S)Nc2cccc(S(F)(F)(F)(F)F)c2)cc1
data_value: 118 % of control

molecule: C[As+](C)(C)CC(=O)O
data_value: 101 % of control

molecule: CCOC(=O)CC1(C)OCCO1
data_value: 99 % of control

molecule: CC1(C)OC1CCl (centres undefined)
data_value: 101 % of control

molecule: CCCCOCCOCCOC1C2CC3C1C3(OCCOCCOCCCC)C2 (centres undefined)
data_value: 104 % of control

molecule: CCSSC12CCCN1C(=O)C(C)N(C)C2=O (centres undefined)
data_value: 111 % of control

---

- Tested on: P388 leukemia ip, CD2F1 mice, survival T/C
- assay_method_text: NCI In Vivo Anticancer Drug Screen. Data for tumor model P388 Leukemia (intraperitoneal) in CD2F1 (CDF1) mice
- assay_context: endpoint: median survival time; dose: 50.0 mg/kg/injection; schedule: Q01DX009 (ip); vehicle: Klucel (hydroxypropylcellulose) (HPC); higher = longer survival
Inconclusive results and toxic doses are left out.

structure_notation: OC1CN(C(c2ccccc2)c2ccccc2)C1
T/C: 100 % of control
--
structure_notation: Oc1cccc(/C=N/N=C/c2cccc(O)c2O)c1O
T/C: 96 % of control
--
structure_notation: CCN(C(=S)Nc1cccc(C(F)(F)F)c1)c1ccccc1
T/C: 101 % of control
--
structure_notation: CCc1ccccc1NC(=O)NCC(C)C
T/C: 105 % of control
--
structure_notation: COc1ccc(-c2coc3cc(O)cc(O)c3c2=O)cc1
T/C: 110 % of control
--
structure_notation: CN1C(=O)C(n2[nH]c(=O)n(-c3ccccc3)c2=O)C(=O)N(C)C1=O
T/C: 99 % of control
